# run-description: Repeat-dose study in monkeys, pharmacokinetics (14 and 56 days)
# measurement-conditions: both, monkey, plasma, po, 200 mg/kg, Cmax, dose 200 mg/kg, Day 1, individual animals
parameter-measured: Cmax (µg/mL)
Form entry: value (µg/mL) — number only.

Reported Cmax for CC#C[C@@H](CC(=O)O)c1ccc(OCC(C)=C(C)C)cc1 [CPL207280] was 258

* * *

# run-description: Single-dose pharmacokinetics in monkeys (p.o. and i.v.)
# Format: in vivo, monkey
# measurement-conditions: monkey, plasma, intravenous, 0.5 mg/kg, monkey, 0,5 mg/kg i.v., 0.5 h, single animals; read-out: plasma conc
parameter-measured: concentration at 0.5 h (ng/mL)
Form entry: value (ng/mL) — number only.

Reported concentration at 0.5 h for CC#C[C@@H](CC(=O)O)c1ccc(OCC(C)=C(C)C)cc1 was 704

* * *

# target-of-assay: BSEP (Homo sapiens, UniProt O95342)
# Sequence (O95342 whole entry): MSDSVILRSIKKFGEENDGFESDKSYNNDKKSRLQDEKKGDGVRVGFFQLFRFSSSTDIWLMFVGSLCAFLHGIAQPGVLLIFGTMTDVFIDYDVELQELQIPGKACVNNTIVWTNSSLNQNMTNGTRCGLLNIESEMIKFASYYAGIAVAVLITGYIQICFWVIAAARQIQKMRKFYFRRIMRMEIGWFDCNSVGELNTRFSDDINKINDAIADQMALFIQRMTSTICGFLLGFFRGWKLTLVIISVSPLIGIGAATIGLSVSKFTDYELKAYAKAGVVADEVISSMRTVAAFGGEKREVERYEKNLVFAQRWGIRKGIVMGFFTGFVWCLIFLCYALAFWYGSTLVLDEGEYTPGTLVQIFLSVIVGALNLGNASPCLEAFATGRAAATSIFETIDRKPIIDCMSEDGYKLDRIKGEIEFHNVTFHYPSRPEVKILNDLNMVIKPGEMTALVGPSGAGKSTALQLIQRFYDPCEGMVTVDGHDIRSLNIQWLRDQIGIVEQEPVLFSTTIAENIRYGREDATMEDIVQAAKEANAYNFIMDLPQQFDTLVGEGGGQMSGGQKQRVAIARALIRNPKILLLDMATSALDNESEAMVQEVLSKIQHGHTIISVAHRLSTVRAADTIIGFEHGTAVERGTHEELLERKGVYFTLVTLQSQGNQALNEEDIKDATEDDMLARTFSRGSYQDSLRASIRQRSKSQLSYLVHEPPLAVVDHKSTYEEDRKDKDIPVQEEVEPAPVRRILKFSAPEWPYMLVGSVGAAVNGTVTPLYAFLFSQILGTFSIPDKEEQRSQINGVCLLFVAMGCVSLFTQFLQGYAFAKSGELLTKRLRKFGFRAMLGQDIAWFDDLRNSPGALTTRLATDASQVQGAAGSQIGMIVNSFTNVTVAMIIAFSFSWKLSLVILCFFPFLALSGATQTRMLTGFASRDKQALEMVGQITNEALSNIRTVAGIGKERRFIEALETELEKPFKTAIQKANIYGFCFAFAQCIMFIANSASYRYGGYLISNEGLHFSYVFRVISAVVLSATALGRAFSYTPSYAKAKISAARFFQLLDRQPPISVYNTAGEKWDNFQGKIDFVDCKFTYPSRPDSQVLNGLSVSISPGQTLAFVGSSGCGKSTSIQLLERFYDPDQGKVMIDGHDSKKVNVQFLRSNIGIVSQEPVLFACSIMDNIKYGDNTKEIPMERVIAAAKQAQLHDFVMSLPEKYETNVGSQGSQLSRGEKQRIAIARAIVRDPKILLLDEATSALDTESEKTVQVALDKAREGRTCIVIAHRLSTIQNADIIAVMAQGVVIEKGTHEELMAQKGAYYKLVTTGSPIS
# run-description: biochemical
parameter-measured: IC50
Answer with the figure and its unit, nothing else.

Reported IC50 for Cc1cc(OCCCS(C)(=O)=O)cc(C)c1-c1cccc(COc2ccc3c(c2)OC[C@H]3CC(=O)O)c1 [TAK-875, fasiglifam, reference compound] was 47.3 µM

* * *

# run-description: Repeat-dose study in monkeys, pharmacokinetics (14 and 56 days)
# measurement-conditions: both, Cynomolgus, monkey, plasma, po, 100 mg/kg, exposure - AUC, dose 100 mg/kg, Day 14, individual animals
parameter-measured: AUC (µg·h/mL)
Form entry: value (µg·h/mL) — number only.

Reported AUC for CC#C[C@@H](CC(=O)O)c1ccc(OCC(C)=C(C)C)cc1 [CPL207280] was 552

* * *

# run-description: Single-dose pharmacokinetics in rats (p.o. and i.v.)
# Type: in vivo, rat
# measurement-conditions: rat, plasma, iv, 3 mg/kg, rats, 3 mg/kg i.v.; read-out: AUC
parameter-measured: AUC (ng·h/mL)
Form entry: value (ng·h/mL) — number only.

| compound | AUC / ng·h/mL |
| --- | --- |
| Cc1cc(OCCCS(C)(=O)=O)cc(C)c1-c1cccc(COc2ccc3c(c2)OC[C@H]3CC(=O)O)c1 [TAK-875, fasiglifam, reference compound] | 45200 |

Reported AUC for CC#C[C@@H](CC(=O)O)c1ccc(OCC(C)=C(C)C)cc1 was 27100

* * *

# run-description: in vivo
# measurement-conditions: both sexes, Wistar Han, rat, 1200 mg/kg, Cmax
parameter-measured: Cmax at 14 days (µg/mL)
Form entry: value (µg/mL) — number only.

Reported Cmax at 14 days for CC#C[C@@H](CC(=O)O)c1ccc(OCC(C)=C(C)C)cc1 [CPL207280] was 250

* * *

As shown below, each of these molecules has a reported microsomal CLint at 3 μM value.
# run-description: Stability in microsomes, mini pig
# Format: in vitro ADME
# measurement-conditions: Mini pig microsomes, mean n = 2

| molecule | microsomal CLint at 3 μM |
| --- | --- |
| CC#C[C@@H](CC(=O)O)c1ccc(OCC(C)=C(C)C)cc1 [CPL207280] | 45 µL/min/mg |

Shift focus to the following entry.
Reported microsomal CLint at 3 μM for Cc1cc(OCCCS(C)(=O)=O)cc(C)c1-c1cccc(COc2ccc3c(c2)OC[C@H]3CC(=O)O)c1 [TAK-875, fasiglifam, reference compound] was 91.1 µL/min/mg
